Test: Human HepG2 cell viability assay in 384 well format
Type: toxicity, cell-based
Design: dose 125 nL, time 70.5 hour; concentration not given beside the values
Conditions: HepG2 cells, read-out: Inhibition
Answer each item with its documented cytotoxicity at 70.5 h.
Give the value in % but do not write % after it.

Documented cytotoxicity at 70.5 h of `COc1ccc(-n2ccc(C(=O)NCCn3ccnc3)n2)cc1` : -8.04

Reported cytotoxicity at 70.5 h of CC(C)c1nc(C2CCCN2C(=O)CN(C)Cc2ccccc2)no1 (stereo not given) : 11.3

For `Cc1ncsc1-c1nnc(C2CCN(Cc3ccc(F)cc3)CC2)o1` the compound record lists cytotoxicity at 70.5 h as 8.74

Kindly note the recorded cytotoxicity at 70.5 h for O=C(NC1CC(=O)N(C2Cc3ccccc3C2)C1)c1csnn1 (stereo not given) , which is -1.65

Reported cytotoxicity at 70.5 h ( COC(=O)CNCC1(O)CCCN(Cc2cccc(F)c2F)C1=O (stereo not given) ) = -0.438

Record `CN(C)c1cc(CNC(=O)c2ccc(Br)cc2F)ccn1` . Reported cytotoxicity at 70.5 h: -4.97

The compound `CC(C)c1noc(CN(CCC2CCCCC2)CC(N)=O)n1` showed cytotoxicity at 70.5 h equal to -3.41

Record CC(C)(C)c1csc(CCNC(=O)C(c2ccccc2)n2cnnn2)n1 (stereo not given) , field cytotoxicity at 70.5 h: -0.915

Reported cytotoxicity at 70.5 h of `CC(=O)N1CCC2(CC1)CN(CC1CC1)c1ccc(F)cc12` : 1.47

Memo: `Cc1cnc(N2CCCC3(CCOCC3)C2)nc1` , reported cytotoxicity at 70.5 h: -1.55

Entry under test: `CCN(CC)CC1CCN(Cc2ncc(C(C)(C)C)o2)CC1` . Its cytotoxicity at 70.5 h was 1.11

compound `COc1ccccc1C(=O)N(C)Cc1ncc(C)c(OC)c1C` , cytotoxicity at 70.5 h observed: -6.37

According to the records, this compound `COc1c(C)cnc(CNC(=O)c2cnc3onc(C)c3c2)c1C` displays cytotoxicity at 70.5 h of 12.5

Summary for this compound, `Cc1ccc(CNC2(Cc3cc(-c4cccc(O)c4)on3)COC2)o1` : cytotoxicity at 70.5 h is -8.24

Form field cytotoxicity at 70.5 h, entry `Cc1ccc2c(c1)C(=O)NCC1(CCN(C(=O)c3ccnn3C)CC1)O2` : -4.65

Per the record, `O=C(c1cc(C2CCCCC2)no1)N1C[C@H]2C[C@H](O)C[C@H]2C1` has cytotoxicity at 70.5 h of -4.06

The reported value for O=C(NC1CC1)C1CCc2nnc(-c3cccnc3)n21 (stereo not given) in terms of cytotoxicity at 70.5 h is -7.6

Kindly note the recorded cytotoxicity at 70.5 h for `COc1ccc(Cl)cc1NCC(=O)NCc1cccnc1OC` , which is 17.6

cytotoxicity at 70.5 h recorded for this compound, CC(C)N1CC(C(=O)NCc2ccnc(-n3cccn3)c2)CC1=O (stereo not given) , is -26.8

What the record says about `CN(Cc1ccc(F)cc1)C(=O)NCc1nnc2n1CCCCC2` : cytotoxicity at 70.5 h is 33.6

For this compound ( `CN1CCC/C1=N\S(=O)(=O)c1ccc(NC(=O)Cc2cccs2)cc1` ), measured cytotoxicity at 70.5 h is -2.68

// sample COC(=O)N1CCCC(C(=O)NCCc2c[nH]c3cc(C)ccc23)C1 (stereo not given) , its cytotoxicity at 70.5 h was -10.8

Kindly note the recorded cytotoxicity at 70.5 h for COCc1cc(O)nc(C2CCCN(Cc3ccc(OC)cc3)C2)n1 (stereo not given) , which is -2.96

Just so you know, measured cytotoxicity at 70.5 h for `c1cn(-c2cnc(C3CCNCC3)cn2)cn1` came out at -10.7

Entry CN(Cc1nnc(C2CC2)n1C)C1CCN(Cc2nccn2C)C1 (stereo not given) ; cytotoxicity at 70.5 h = 2.78
